System: U2OS cells
PROTOCOL_DETAILS: EEA1 assay (endosomal vesicle enlargement as surrogate readout of PIKFyve inhibition)
Assay type: cell-based
TEST_CONTEXT: Homo sapiens, 3 hours of treatment, class symbols
RESULT_TYPE: IC50

// query Item under review: Cc1cccc(-c2ccn(-c3cc(N4CCOCC4)n4nc(CCC(=O)N(C)C)cc4n3)n2)c1 . Reported IC50?
// result 100 to 1000 nM

// query Item under review: COc1nn(-c2cc(N3CCOCC3)n3nc(C(O)CO)cc3n2)cc1-c1ccccc1 (stereo not drawn) . Reported IC50?
// result 1000 to 10000 nM

// query Item under review: Cc1cccc(-c2ccn(-c3cc(N4CCOCC4)n4nc(C5CCN(C)C(=O)C5)cc4n3)n2)c1 (stereo not drawn) . Reported IC50?
// result 1000 to 10000 nM

// query Item under review: COc1cccc(-c2ccn(-c3cc(N4CCOCC4)n4nc(-c5ccncc5)cc4n3)n2)c1 . Reported IC50?
// result 100 to 1000 nM

// query Item under review: Cn1ccc(-c2cccc(-c3cc(N4CCOCC4)n4nc(-c5ccncc5)cc4n3)c2)n1 . Reported IC50?
// result 1000 to 10000 nM

// query Item under review: Cc1cccc(-c2ccn(-c3cc(N4CCOCC4)n4nc(C(O)CO)cc4n3)n2)c1 (stereo not drawn) . Reported IC50?
// result 1000 to 10000 nM

// query Item under review: Cc1cccc(-c2ccn(-c3cc(N4CCOCC4)n4nccc4n3)n2)c1 . Reported IC50?
// result 1000 to 10000 nM

// query Item under review: c1ccc(-c2nccc(-c3cc(N4CCOCC4)n4nc(C5CCCO5)cc4n3)n2)cc1 (stereo not drawn) . Reported IC50?
// result 1000 to 10000 nM

// query Item under review: Cc1cccc(-c2ccn(-c3cc(N4CCOCC4)n4nc(-c5cccnc5)cc4n3)n2)c1 . Reported IC50?
// result 100 to 1000 nM

// query Item under review: Oc1cc(-c2ccccc2)nn1-c1cc(N2CCOCC2)n2nc(-c3ccncc3)cc2n1 . Reported IC50?
// result 1000 to 10000 nM

// query Item under review: Cc1cccc(-c2ccn(-c3cc(N4CCOCC4)n4nc(-c5ccncc5)cc4n3)n2)c1 . Reported IC50?
// result 100 to 1000 nM

// query Item under review: Cn1ccc(-c2cccc(-c3cc(N4CCOCC4)n4nc(N5CCC(O)CC5)cc4n3)c2)n1 . Reported IC50?
// result 1000 to 10000 nM

* * *

SYSTEM_TESTED: full-length human PIKFYVE (Homo sapiens (Human), UniProt Q9Y2I7, L932S/Q1183K/Q995L/S1033A/S696N/T998S)
Sequence (Q9Y2I7 whole entry S696N/L932S/Q995L/T998S/S1033A/Q1183K): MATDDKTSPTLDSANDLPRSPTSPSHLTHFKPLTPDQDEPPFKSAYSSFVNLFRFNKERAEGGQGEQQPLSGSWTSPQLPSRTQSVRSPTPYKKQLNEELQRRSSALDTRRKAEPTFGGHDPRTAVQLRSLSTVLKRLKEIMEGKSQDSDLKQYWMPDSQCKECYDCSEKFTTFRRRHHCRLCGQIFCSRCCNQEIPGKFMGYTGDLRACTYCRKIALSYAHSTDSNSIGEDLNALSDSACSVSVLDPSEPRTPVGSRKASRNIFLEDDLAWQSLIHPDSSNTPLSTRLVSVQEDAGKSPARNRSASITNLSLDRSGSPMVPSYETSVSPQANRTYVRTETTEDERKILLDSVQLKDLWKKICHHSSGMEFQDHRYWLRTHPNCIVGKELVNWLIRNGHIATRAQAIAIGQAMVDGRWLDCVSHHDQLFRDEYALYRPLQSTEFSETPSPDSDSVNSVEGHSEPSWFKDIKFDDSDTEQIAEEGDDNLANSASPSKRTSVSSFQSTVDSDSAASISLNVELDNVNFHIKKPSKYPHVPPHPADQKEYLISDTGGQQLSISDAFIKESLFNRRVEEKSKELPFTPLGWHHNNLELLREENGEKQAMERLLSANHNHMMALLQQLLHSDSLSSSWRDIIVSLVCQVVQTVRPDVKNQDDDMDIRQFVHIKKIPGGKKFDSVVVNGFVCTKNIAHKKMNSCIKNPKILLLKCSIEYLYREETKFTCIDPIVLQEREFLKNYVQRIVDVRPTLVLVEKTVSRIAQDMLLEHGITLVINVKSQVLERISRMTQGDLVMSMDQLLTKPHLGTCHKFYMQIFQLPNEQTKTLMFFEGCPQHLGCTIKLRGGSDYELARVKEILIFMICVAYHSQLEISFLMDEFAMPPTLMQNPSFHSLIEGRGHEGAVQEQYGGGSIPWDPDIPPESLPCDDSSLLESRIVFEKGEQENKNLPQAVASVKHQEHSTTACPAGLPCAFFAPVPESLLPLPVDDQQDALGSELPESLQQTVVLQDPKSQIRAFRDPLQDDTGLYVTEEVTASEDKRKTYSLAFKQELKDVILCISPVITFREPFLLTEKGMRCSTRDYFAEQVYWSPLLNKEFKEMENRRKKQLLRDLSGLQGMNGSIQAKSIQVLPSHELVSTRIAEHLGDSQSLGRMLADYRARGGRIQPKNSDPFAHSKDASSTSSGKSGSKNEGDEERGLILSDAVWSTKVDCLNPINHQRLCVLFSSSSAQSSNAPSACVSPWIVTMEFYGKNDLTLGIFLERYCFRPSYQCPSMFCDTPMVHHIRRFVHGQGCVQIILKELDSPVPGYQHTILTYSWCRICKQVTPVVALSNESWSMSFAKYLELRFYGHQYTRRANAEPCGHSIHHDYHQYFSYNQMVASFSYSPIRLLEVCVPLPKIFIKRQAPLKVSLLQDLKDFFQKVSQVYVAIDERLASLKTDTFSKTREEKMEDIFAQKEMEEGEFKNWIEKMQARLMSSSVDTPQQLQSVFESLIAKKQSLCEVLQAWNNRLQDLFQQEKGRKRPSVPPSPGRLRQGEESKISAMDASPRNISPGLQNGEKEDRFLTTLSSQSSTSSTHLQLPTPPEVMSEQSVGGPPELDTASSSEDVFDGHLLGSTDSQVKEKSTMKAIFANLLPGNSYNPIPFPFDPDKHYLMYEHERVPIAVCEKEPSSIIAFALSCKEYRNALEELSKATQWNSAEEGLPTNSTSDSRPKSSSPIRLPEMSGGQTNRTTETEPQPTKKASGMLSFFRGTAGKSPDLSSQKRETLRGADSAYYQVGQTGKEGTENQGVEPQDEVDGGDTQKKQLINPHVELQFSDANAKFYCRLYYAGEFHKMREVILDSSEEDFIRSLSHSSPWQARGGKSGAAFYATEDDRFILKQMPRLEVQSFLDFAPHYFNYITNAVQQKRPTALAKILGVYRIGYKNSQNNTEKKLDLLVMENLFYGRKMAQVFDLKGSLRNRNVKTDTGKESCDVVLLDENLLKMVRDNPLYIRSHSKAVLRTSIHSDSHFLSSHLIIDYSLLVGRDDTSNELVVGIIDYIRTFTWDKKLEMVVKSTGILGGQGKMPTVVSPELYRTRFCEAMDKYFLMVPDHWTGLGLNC
PROTOCOL_DETAILS: PIKfyve biochemical assay (ADP-Glo Kinase assay, Carna Biosciences)
TEST_CONTEXT: class symbols
pIC50: −log10 of the molar value.
RESULT_TYPE: pIC50

// query Item under review: c1cc(-c2cc3nc(-n4ccc(C5CCCNC5)n4)cc(N4CCOCC4)n3n2)ccn1 (single isomer, unassigned) [Compound 75] . Reported pIC50?
// result 6.00 to 7.00

// query Item under review: OCC1(c2ccn(-c3cc(N4CCOCC4)n4nc(-c5ccncc5)cc4n3)n2)CC1 . Reported pIC50?
// result 6.00 to 7.00

// query Item under review: Cc1cccc(-c2ccn(-c3cc(N4CCOCC4)n4nc(-c5cccnc5)cc4n3)n2)c1 . Reported pIC50?
// result > 8.00

// query Item under review: c1cc(-c2cc3nc(-n4ccc(C5CCCOC5)n4)cc(N4CCOCC4)n3n2)ccn1 (centres unmarked) . Reported pIC50?
// result 5.00 to 6.00

// query Item under review: COCCc1ccn(-c2cc(N3CCOCC3)n3nc(-c4ccncc4)cc3n2)n1 . Reported pIC50?
// result 6.00 to 7.00

// query Item under review: c1ccc(N2CC(c3cc(N4CCOCC4)n4nc(-c5ccncc5)cc4n3)C2)cc1 . Reported pIC50?
// result < 5.00

// query Item under review: N#Cc1cc(N2CCOCC2)n2nc(-c3ccncc3)cc2n1 . Reported pIC50?
// result < 5.00

// query Item under review: O=C1COC(c2ccccc2)CN1c1cc(N2CCOCC2)n2nc(-c3ccncc3)cc2n1 (centres unmarked) . Reported pIC50?
// result 5.00 to 6.00

* * *

Please respond with reported IC50 for every item in the list.
SYSTEM_TESTED: full-length human PIKFYVE (Homo sapiens (Human), UniProt Q9Y2I7, L932S/Q1183K/Q995L/S1033A/S696N/T998S)
PROTOCOL_DETAILS: PIKfyve biochemical assay (ADP-Glo Kinase assay, Carna Biosciences)
TEST_CONTEXT: class symbols

// query Item under review: c1ccc(-c2cc(N3CCOCC3)n3nc(-c4ccncc4)cc3n2)nc1 . Reported IC50?
// result 0.1 to 1 µM

// query Item under review: c1ccc(CC2CNCCN2c2cc(N3CCOCC3)n3nc(-c4ccncc4)cc3n2)cc1 (centres unmarked) . Reported IC50?
// result 1 to 10 µM

// query Item under review: Fc1cccc(-c2ccn(-c3cc(N4CCOCC4)n4nc(C5CCCO5)cc4n3)n2)c1 (centres unmarked) . Reported IC50?
// result 0.1 to 1 µM

// query Item under review: c1ccc(Cc2nccc(-c3cc(N4CCOCC4)n4nc(-c5ccncc5)cc4n3)n2)cc1 . Reported IC50?
// result 0.1 to 1 µM

// query Item under review: CN1CCC(c2ccn(-c3cc(N4CCOCC4)n4nc(-c5ccncc5)cc4n3)n2)CC1 . Reported IC50?
// result 0.1 to 1 µM

// query Item under review: Fc1ccc(Oc2ncccc2-c2cc(N3CCOCC3)n3nc(-c4ccncc4)cc3n2)cc1 . Reported IC50?
// result 0.1 to 1 µM

// query Item under review: CN1CCN(c2cc(N3CCOCC3)n3nc(-c4ccncc4)cc3n2)C(=O)C1c1ccccc1 (centres unmarked) . Reported IC50?
// result 1 to 10 µM

// query Item under review: c1ccc(C2CCCN(c3cc(N4CCOCC4)n4nc(-c5ccncc5)cc4n3)C2)cc1 (centres unmarked) . Reported IC50?
// result 1 to 10 µM

* * *

SYSTEM_TESTED: full-length human PIKFYVE (Homo sapiens (Human), UniProt Q9Y2I7, L932S/Q1183K/Q995L/S1033A/S696N/T998S)
PROTOCOL_DETAILS: PIKfyve biochemical assay (ADP-Glo Kinase assay, Carna Biosciences)
TEST_CONTEXT: class symbols
pIC50: −log10 of the molar value.
Please respond with reported pIC50 for every item in the list.

// query Item under review: c1ccc(Cc2cccnc2-c2cc(N3CCOCC3)n3nc(-c4ccncc4)cc3n2)cc1 . Reported pIC50?
// result 5.00 to 6.00

// query Item under review: CC1(CCc2ccn(-c3cc(N4CCOCC4)n4nc(-c5ccncc5)cc4n3)n2)CC1 . Reported pIC50?
// result 5.00 to 6.00

// query Item under review: c1cc(-c2cc3nc(-n4ccc(C5CCCNC5)n4)cc(N4CCOCC4)n3n2)ccn1 (stereo not drawn) [Compound 67] . Reported pIC50?
// result 6.00 to 7.00

// query Item under review: CNC(COc1cc(N2CCOCC2)n2nc(-c3ccncc3)cc2n1)c1cccc(C)c1 (stereo not drawn) . Reported pIC50?
// result 5.00 to 6.00

// query Item under review: O=C1C(c2ccccc2)CCN1c1cc(N2CCOCC2)n2nc(-c3ccncc3)cc2n1 (stereo not drawn) . Reported pIC50?
// result 6.00 to 7.00

// query Item under review: c1ccc(-n2nccc2-c2cc(N3CCOCC3)n3nc(-c4ccncc4)cc3n2)cc1 . Reported pIC50?
// result 6.00 to 7.00

// query Item under review: c1ccc(CN2CCCC2c2cc(N3CCOCC3)n3nc(-c4ccncc4)cc3n2)cc1 (stereo not drawn) . Reported pIC50?
// result 5.00 to 6.00

// query Item under review: c1ccc(-c2nsc(-c3cc(N4CCOCC4)n4nc(-c5ccncc5)cc4n3)n2)cc1 . Reported pIC50?
// result 7.00 to 8.00

// query Item under review: CN1CCCC(c2cn(-c3cc(N4CCOCC4)n4nc(-c5ccncc5)cc4n3)cn2)C1 (stereo not drawn) . Reported pIC50?
// result 5.00 to 6.00

// query Item under review: CN1CCN(c2cc(N3CCOCC3)n3nc(-c4ccncc4)cc3n2)C(Cc2ccccc2)C1 (stereo not drawn) . Reported pIC50?
// result 5.00 to 6.00

// query Item under review: c1cc(-c2cc3nc(-n4cnc(C5CCCNC5)c4)cc(N4CCOCC4)n3n2)ccn1 (stereo not drawn) . Reported pIC50?
// result 5.00 to 6.00

// query Item under review: c1ccc(Cc2ncccc2-c2cc(N3CCOCC3)n3nc(-c4ccncc4)cc3n2)cc1 . Reported pIC50?
// result 5.00 to 6.00

// query Item under review: FC1(F)CNCC(c2ccn(-c3cc(N4CCOCC4)n4nc(-c5ccncc5)cc4n3)n2)C1 (stereo not drawn) . Reported pIC50?
// result 5.00 to 6.00

// query Item under review: c1ccc(-c2ccn(-c3cc(N4CCOCC4)n4nc(-c5ccncc5)cc4n3)n2)cc1 . Reported pIC50?
// result 7.00 to 8.00

// query Item under review: C=Cc1cc2nc(-n3ccc(-c4ccccc4)n3)cc(N3CCOCC3)n2n1 . Reported pIC50?
// result 6.00 to 7.00

// query Item under review: COCC1(c2ccn(-c3cc(N4CCOCC4)n4nc(-c5ccncc5)cc4n3)n2)CC1 . Reported pIC50?
// result 6.00 to 7.00

// query Item under review: O=c1c(-c2ccccc2)ccnn1-c1cc(N2CCOCC2)n2nc(-c3ccncc3)cc2n1 . Reported pIC50?
// result 6.00 to 7.00

// query Item under review: Fc1cc(N2CCOCC2)n2nc(-c3ccncc3)cc2n1 . Reported pIC50?
// result 6.00 to 7.00
